The origin of these recorded values is patent US20050042701A1.

experiment: 1st phase clinical test: pharmacokinetics of petasin in serum after single oral administration of tablets containing butterbur extract (open crossover; enzyme immunoassay); assay type: in vivo, human (clinically healthy men); details: male, human, serum, oral, 2 tablets, after administering 2 tablets; 0.5 h p.a.; read-out: Petasin serum concentration Max.
Experimental readout: concentration at 0.5 h
Give me the value, and tack the unit on after it.

-- ask I have this compound here, C=C(C)C1CC2(C)C(=CC1=O)CCC(OC(=O)/C(C)=C\C)C2C (stereo not shown) [petasin] , and I need its recorded concentration at 0.5 h.
-- reply 23.3 ng/mL

* * *

Experiment: 1st phase clinical test: pharmacokinetics of petasin in serum after single oral administration of tablets containing butterbur extract (open crossover; enzyme immunoassay)
Format: in vivo, human (clinically healthy men)
Conditions: male, human, serum, oral, 2 tablets, after administering 2 tablets; 3 h p.a.; read-out: Petasin serum concentration Median
Protocol: Petasin ovalbumin is adsorptively bound to polystyrene microtitration plates in a concentration of […] in 0.1 M carbonate buffer, pH=9.5, (100 μl/well) for 16 hours at 4° C. and thereupon sucked off. After washing it two times with 300 μl/well washing buffer (PBS, 0.1% Tween 20) it is blocked for 2 hours at room temperature with 150 μl/well blocking solution (0.6% gelatine, 0.02% […] in PBS) and subsequently washed three times with washing buffer. […]
Experimental readout: concentration at 3 h

-- ask I have this compound here, C=C(C)C1CC2(C)C(=CC1=O)CCC(OC(=O)/C(C)=C\C)C2C (stereo not shown) [petasin] , and I need its recorded concentration at 3 h.
-- reply 7.7 ng/mL

* * *

experiment: 1st phase clinical test: pharmacokinetics of petasin in serum after single oral administration of tablets containing butterbur extract (open crossover; enzyme immunoassay); format: in vivo, human (clinically healthy men); details: male, human, serum, oral, 2 tablets, after administering 2 tablets; 8 h p.a.; read-out: Petasin serum concentration Max.
Experimental readout: concentration at 8 h (ng/mL)
One number for each entry, in ng/mL.

-- ask I have this compound here, C=C(C)C1CC2(C)C(=CC1=O)CCC(OC(=O)/C(C)=C\C)C2C (stereo not shown) [petasin] , and I need its recorded concentration at 8 h.
-- reply 4.2

* * *

test: 1st phase clinical test: pharmacokinetics of petasin in serum after single oral administration of tablets containing butterbur extract (open crossover; enzyme immunoassay); assay type: in vivo, human (clinically healthy men); conditions: male, human, serum, oral, 2 tablets, after administering 2 tablets; 2.5 h p.a.; read-out: Petasin serum concentration Mean
Experimental readout: concentration at 2.5 h (ng/mL)
One number for each entry, in ng/mL.

-- ask I have this molecule here, C=C(C)C1CC2(C)C(=CC1=O)CCC(OC(=O)/C(C)=C\C)C2C (stereo not shown) , and I need its recorded concentration at 2.5 h.
-- reply 13.6

* * *

Test: 1st phase clinical test: pharmacokinetics of petasin in serum after single oral administration of tablets containing butterbur extract (open crossover; enzyme immunoassay)
Format: in vivo, human (clinically healthy men)
Conditions: male, human, serum, oral, 2 tablets, after administering 2 tablets; 24 h p.a.; read-out: Petasin serum concentration Median
Description: Petasin ovalbumin is adsorptively bound to polystyrene microtitration plates in a concentration of […] in 0.1 M carbonate buffer, pH=9.5, (100 μl/well) for 16 hours at 4° C. and thereupon sucked off. After washing it two times with 300 μl/well washing buffer (PBS, 0.1% Tween 20) it is blocked for 2 hours at room temperature with 150 μl/well blocking solution (0.6% gelatine, 0.02% […] in PBS) and subsequently washed three times with washing buffer. […]
Experimental readout: concentration at 24 h (ng/mL)
Numbers only, in ng/mL.

-- ask I have this compound here, C=C(C)C1CC2(C)C(=CC1=O)CCC(OC(=O)/C(C)=C\C)C2C (stereo not shown) [petasin] , and I need its recorded concentration at 24 h.
-- reply 1.3

* * *

assay: 1st phase clinical test: pharmacokinetics of petasin in serum after single oral administration of tablets containing butterbur extract (open crossover; enzyme immunoassay); format: in vivo, human (clinically healthy men); conditions: male, human, serum, oral, 4 tablets, after administering 4 tablets; 2.5 h p.a.; read-out: Petasin serum concentration Min.
Experimental readout: concentration at 2.5 h (ng/mL)
Numbers only, in ng/mL.

-- ask I have this compound here, C=C(C)C1CC2(C)C(=CC1=O)CCC(OC(=O)/C(C)=C\C)C2C (stereo not shown) , and I need its recorded concentration at 2.5 h.
-- reply 8.4

* * *

test: 1st phase clinical test: pharmacokinetics of petasin in serum after single oral administration of tablets containing butterbur extract (open crossover; enzyme immunoassay); type: in vivo, human (clinically healthy men); conditions: male, human, serum, oral, 4 tablets, after administering 4 tablets; 2.167 h p.a.; read-out: Petasin serum concentration Min.
Experimental readout: concentration at 2.167 h (ng/mL)
Numbers only, in ng/mL.

-- ask I have this compound here, C=C(C)C1CC2(C)C(=CC1=O)CCC(OC(=O)/C(C)=C\C)C2C (stereo not shown) , and I need its recorded concentration at 2.167 h.
-- reply 11.4

* * *

assay: 1st phase clinical test: pharmacokinetics of petasin in serum after single oral administration of tablets containing butterbur extract (open crossover; enzyme immunoassay); format: in vivo, human (clinically healthy men); settings: male, human, serum, oral, 2 tablets, after administering 2 tablets; 4 h p.a.; read-out: Petasin serum concentration Mean
Experimental readout: concentration at 4 h
Give me the value, and tack the unit on after it.

-- ask I have this compound here, C=C(C)C1CC2(C)C(=CC1=O)CCC(OC(=O)/C(C)=C\C)C2C (stereo not shown) , and I need its recorded concentration at 4 h.
-- reply 4.5 ng/mL

* * *

test: 1st phase clinical test: pharmacokinetics of petasin in serum after single oral administration of tablets containing butterbur extract (open crossover; enzyme immunoassay); type: in vivo, human (clinically healthy men); details: male, human, serum, oral, 4 tablets, after administering 4 tablets; 6 h p.a.; read-out: Petasin serum concentration Min.
Experimental readout: concentration at 6 h (ng/mL)
Answers are plain numbers, in ng/mL.

-- ask I have this compound here, C=C(C)C1CC2(C)C(=CC1=O)CCC(OC(=O)/C(C)=C\C)C2C (stereo not shown) [petasin] , and I need its recorded concentration at 6 h.
-- reply 1.6

* * *

test: 1st phase clinical test: pharmacokinetics of petasin in serum after single oral administration of tablets containing butterbur extract (open crossover; enzyme immunoassay); type: in vivo, human (clinically healthy men); settings: male, human, serum, oral, 4 tablets, after administering 4 tablets; 0.5 h p.a.; read-out: Petasin serum concentration Min.
Experimental readout: concentration at 0.5 h (ng/mL)
Give bare numbers, in ng/mL.

-- ask I have this compound here, C=C(C)C1CC2(C)C(=CC1=O)CCC(OC(=O)/C(C)=C\C)C2C (stereo not shown) [petasin] , and I need its recorded concentration at 0.5 h.
-- reply 1.3

* * *

test: 1st phase clinical test: pharmacokinetics of petasin in serum after single oral administration of tablets containing butterbur extract (open crossover; enzyme immunoassay); assay type: in vivo, human (clinically healthy men); details: male, human, serum, oral, 2 tablets, after administering 2 tablets; 6 h p.a.; read-out: Petasin serum concentration Min.
Experimental readout: concentration at 6 h (ng/mL)
Answers are plain numbers, in ng/mL.

-- ask I have this molecule here, C=C(C)C1CC2(C)C(=CC1=O)CCC(OC(=O)/C(C)=C\C)C2C (stereo not shown) , and I need its recorded concentration at 6 h.
-- reply 1.2

* * *

experiment: 1st phase clinical test: pharmacokinetics of petasin in serum after single oral administration of tablets containing butterbur extract (open crossover; enzyme immunoassay); type: in vivo, human (clinically healthy men); conditions: male, human, serum, oral, 2 tablets, after administering 2 tablets; 1.833 h p.a.; read-out: Petasin serum concentration Max.
Experimental readout: concentration at 1.833 h (µg/mL)
Numbers only, in µg/mL.

-- ask I have this compound here, C=C(C)C1CC2(C)C(=CC1=O)CCC(OC(=O)/C(C)=C\C)C2C (stereo not shown) , and I need its recorded concentration at 1.833 h.
-- reply 0.0443

* * *

test: 1st phase clinical test: pharmacokinetics of petasin in serum after single oral administration of tablets containing butterbur extract (open crossover; enzyme immunoassay); format: in vivo, human (clinically healthy men); conditions: male, human, serum, oral, 4 tablets, after administering 4 tablets; 0.5 h p.a.; read-out: Petasin serum concentration Mean
Experimental readout: concentration at 0.5 h (ng/mL)
Answers are plain numbers, in ng/mL.

-- ask I have this compound here, C=C(C)C1CC2(C)C(=CC1=O)CCC(OC(=O)/C(C)=C\C)C2C (stereo not shown) [petasin] , and I need its recorded concentration at 0.5 h.
-- reply 21.2

* * *

experiment: 1st phase clinical test: pharmacokinetics of petasin in serum after single oral administration of tablets containing butterbur extract (open crossover; enzyme immunoassay); assay type: in vivo, human (clinically healthy men); details: male, human, serum, oral, 4 tablets, after administering 4 tablets; 0.25 h p.a.; read-out: Petasin serum concentration Max.
Experimental readout: concentration at 0.25 h (ng/mL)
Give bare numbers, in ng/mL.

-- ask I have this compound here, C=C(C)C1CC2(C)C(=CC1=O)CCC(OC(=O)/C(C)=C\C)C2C (stereo not shown) , and I need its recorded concentration at 0.25 h.
-- reply 14.9
